Data origin, for the record: ChEMBL document CHEMBL1125411

target: Pancreatic elastase (Sus scrofa) (UniProt P08419+P00772); assay: Inactivation of porcine pancreatic elastase (PPE) expressed as rate constant.; assay type: functional
MEASUREMENT TYPE: second-order inactivation rate constant (kobs/[I]) (M⁻¹ s⁻¹)

Previously resolved entries follow.
COc1oc(=O)c2cc(NC(=O)CC(CC(=O)O)c3ccccc3)ccc2c1Cl (stereo not given) | 100
CCOC(=O)Nc1ccc2c(Cl)c(OC)oc(=O)c2c1 | 2000
COc1oc(=O)c2cc(N=C=O)ccc2c1Cl | 650
COc1oc(=O)c2cc(NC(=O)Oc3ccccc3)ccc2c1Cl | 850
COc1oc(=O)c2cc(NC(=O)N(CCc3ccccc3)Cc3ccccc3)ccc2c1Cl | 17

a. COC(=O)CCC(=O)Nc1ccc2c(Cl)c(OC)oc(=O)c2c1
b. COc1oc(=O)c2cc(NC(=O)CCC(=O)O)ccc2c1Cl
Between a and b , whose recorded second-order inactivation rate constant (kobs/[I]) is greater? Provide the label of your selected option as the answer.
a
(a: 2200 M⁻¹ s⁻¹, b: 900 M⁻¹ s⁻¹)

----------
molecular target: Neutrophil elastase (Homo sapiens) (UniProt P08246); experiment: Inactivation of human leukocyte (neutrophil) elastase (HLE)(HNE) as rate constant; format: functional
Sequence (P08246 whole entry): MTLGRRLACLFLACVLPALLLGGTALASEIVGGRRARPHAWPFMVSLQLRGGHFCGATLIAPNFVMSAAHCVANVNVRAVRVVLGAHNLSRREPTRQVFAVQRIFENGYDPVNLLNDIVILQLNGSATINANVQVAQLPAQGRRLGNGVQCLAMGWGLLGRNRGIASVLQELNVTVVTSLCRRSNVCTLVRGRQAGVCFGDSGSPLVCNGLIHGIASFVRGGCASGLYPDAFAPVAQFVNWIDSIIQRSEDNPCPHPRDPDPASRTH
MEASUREMENT TYPE: kobs/[I] (second-order inactivation rate constant) (M⁻¹ s⁻¹)

Previously resolved entries follow.
COc1oc(=O)c2cc(NC(=O)C(CC(C)C)NS(=O)(=O)c3ccc(C)cc3)ccc2c1Cl (stereo not given) | 54000
COC(=O)CCCC(=O)Nc1ccc2c(Cl)c(OC)oc(=O)c2c1 | 54000
COC(=O)CCC(=O)Nc1ccc2c(Cl)c(OC)oc(=O)c2c1 | 43000
COC(=O)Nc1cccc(C(=O)Nc2ccc3c(Cl)c(OC)oc(=O)c3c2)c1 | 100000
COc1oc(=O)c2cc(NC(=O)N(CCc3ccccc3)Cc3ccccc3)ccc2c1Cl | 12000
COc1oc(=O)c2cc(NC(=O)C(F)(F)C(F)(F)C(F)(F)F)ccc2c1Cl | 47000
COc1oc(=O)c2cc(NC(=O)Cc3ccccc3)ccc2c1Cl | 37000
COc1oc(=O)c2cc(NC(=O)C(C)NS(=O)(=O)c3ccc(C)cc3)ccc2c1Cl (stereo not given) | 55000

P. COc1oc(=O)c2cc(NC(=O)OCc3ccccc3)ccc2c1Cl
Q. COc1oc(=O)c2cc(NC(=O)C(NS(=O)(=O)c3ccc(C)cc3)C(C)C)ccc2c1Cl (stereo not given)
Between P and Q , whose recorded kobs/[I] (second-order inactivation rate constant) is greater? Provide the label of your selected option as the answer.
P
(P: 71000 M⁻¹ s⁻¹, Q: 36000 M⁻¹ s⁻¹)

----------
biological target: Pancreatic elastase (Sus scrofa) (UniProt P08419+P00772); test: Inactivation of porcine pancreatic elastase (PPE) expressed as rate constant.; format: functional
MEASUREMENT TYPE: second-order inactivation rate constant (kobs/[I]) (M⁻¹ s⁻¹)

Previously resolved entries follow.
COc1oc(=O)c2cc(NC(=O)C(NS(=O)(=O)c3ccc(C)cc3)C(C)C)ccc2c1Cl (stereo not given) | 1300
COc1oc(=O)c2cc(NC(=O)C(NS(=O)(=O)c3ccc(C)cc3)c3ccccc3)ccc2c1Cl (stereo not given) | 1500
COc1oc(=O)c2cc(NC(=O)CCCC(=O)O)ccc2c1Cl | 900
COc1oc(=O)c2cc(NC(=O)C(C)NS(=O)(=O)c3ccc(C)cc3)ccc2c1Cl (stereo not given) | 2500

I. COc1oc(=O)c2cc(NC(=O)CC(c3ccccc3)c3ccccc3)ccc2c1Cl
II. COc1oc(=O)c2cc(NC(=O)C(F)(F)C(F)(F)C(F)(F)F)ccc2c1Cl
III. COC(=O)c1ccccc1C(=O)Nc1ccc2c(Cl)c(OC)oc(=O)c2c1
Order the items by recorded second-order inactivation rate constant (kobs/[I]); the first position goes to the largest value. Answer by writing out the labels in the requested order.
III, I, II
(III: 7100 M⁻¹ s⁻¹, I: 2400 M⁻¹ s⁻¹, II: 1100 M⁻¹ s⁻¹)
